target: Toll-like receptor 9 (Homo sapiens) + Myeloid differentiation primary response protein MyD88 (Homo sapiens) (UniProt Q9NR96+Q99836); test: disruptors of TLR9 binding to MyD88 – cell-based, CHO, BLA complementation, fluorescence, primary screen (AID 504734); settings: CHO BLA complementation TLR9-MyD88, CCF4 FRET ratio; at 4.98 µM
Sequence (Q99836 whole entry, looked up): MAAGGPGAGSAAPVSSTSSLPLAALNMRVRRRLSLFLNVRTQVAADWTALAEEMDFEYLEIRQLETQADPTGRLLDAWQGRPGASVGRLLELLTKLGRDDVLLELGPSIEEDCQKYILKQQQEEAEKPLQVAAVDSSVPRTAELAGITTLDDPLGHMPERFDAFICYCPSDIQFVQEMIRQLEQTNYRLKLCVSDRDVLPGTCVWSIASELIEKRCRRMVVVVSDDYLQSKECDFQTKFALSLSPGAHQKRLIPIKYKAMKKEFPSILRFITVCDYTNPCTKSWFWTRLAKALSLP
Sequence (Q9NR96 whole entry, looked up): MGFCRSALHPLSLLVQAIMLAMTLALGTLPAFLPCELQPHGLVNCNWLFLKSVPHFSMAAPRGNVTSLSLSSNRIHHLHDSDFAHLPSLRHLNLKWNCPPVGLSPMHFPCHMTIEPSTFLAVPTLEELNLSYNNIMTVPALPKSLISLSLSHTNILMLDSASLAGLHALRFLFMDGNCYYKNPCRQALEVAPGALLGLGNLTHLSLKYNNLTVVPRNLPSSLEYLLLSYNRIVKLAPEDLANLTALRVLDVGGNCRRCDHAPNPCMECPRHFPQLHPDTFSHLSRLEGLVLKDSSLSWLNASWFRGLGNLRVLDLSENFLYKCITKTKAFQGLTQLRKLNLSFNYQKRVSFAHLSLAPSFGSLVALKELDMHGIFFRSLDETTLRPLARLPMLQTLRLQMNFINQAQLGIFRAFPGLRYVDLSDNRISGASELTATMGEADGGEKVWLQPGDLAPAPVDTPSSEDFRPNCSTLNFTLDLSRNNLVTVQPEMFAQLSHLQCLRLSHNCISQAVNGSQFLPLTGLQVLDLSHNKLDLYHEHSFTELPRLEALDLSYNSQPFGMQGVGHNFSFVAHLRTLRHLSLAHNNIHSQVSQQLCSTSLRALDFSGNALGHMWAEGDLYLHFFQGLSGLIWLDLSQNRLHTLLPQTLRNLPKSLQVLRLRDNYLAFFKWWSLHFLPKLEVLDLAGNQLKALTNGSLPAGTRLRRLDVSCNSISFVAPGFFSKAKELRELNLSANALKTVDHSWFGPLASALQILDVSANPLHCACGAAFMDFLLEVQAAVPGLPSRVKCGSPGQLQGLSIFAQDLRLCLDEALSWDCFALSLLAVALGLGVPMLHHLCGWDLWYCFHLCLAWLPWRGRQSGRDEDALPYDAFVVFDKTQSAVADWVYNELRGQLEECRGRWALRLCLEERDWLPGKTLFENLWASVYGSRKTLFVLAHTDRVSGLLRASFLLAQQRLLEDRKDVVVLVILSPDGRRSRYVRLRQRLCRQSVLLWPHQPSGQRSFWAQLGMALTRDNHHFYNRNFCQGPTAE
Screen size: about 340,000 compounds; about 730 (0.21%) were called active.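 Rule for the calls: active = inhibition above the mean over all tested compounds plus 3 SD (cut at about 21% in these data); inactive = the rest.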 The sample as a whole holds a higher share of actives than the screen did.
Returns: one label drawn from active, inactive

Solved entries:
compound=CCOC(=O)c1c(NC(=O)COC(=O)c2ccc(S(=O)(=O)C(F)F)cc2)sc(C(=O)N(C)C)c1C qualitativelabel=inactive
compound=CC(=O)COc1ccc2c(-c3ccccc3)cc(=O)oc2c1 qualitativelabel=inactive
compound=Cc1ccc2cccc([N+](=O)[O-])c2n1 qualitativelabel=inactive
compound=O=C(CNC(=O)OCc1ccccc1)Oc1cc2oc(=O)cc(-c3ccccc3)c2cc1Cl qualitativelabel=active
compound=CCOc1cc(/C=N/NC(=O)c2c(C)nc3ccc(Cl)cn23)ccc1O qualitativelabel=inactive

Dear colleague, could you share the recorded outcome for O=C(/C=C(O)/C=C/c1ccc(O)cc1)/C=C/c1ccc(O)cc1 when you have a moment? active

Dear colleague, could you share the recorded outcome for COc1ccc(S(=O)(=O)N(C)C[C@H]2OCc3cnnn3CCCC(=O)N([C@H](C)CO)C[C@H]2C)cc1 when you have a moment? inactive

Dear colleague, could you share the recorded outcome for CNC(=O)C1CN(C(=O)c2cccc(S(=O)(=O)N3CCc4ccccc43)c2)c2ccccc2O1 (stereo not drawn) when you have a moment? inactive

----------
target: Toll-like receptor 9 (Homo sapiens) + Myeloid differentiation primary response protein MyD88 (Homo sapiens) (UniProt Q9NR96+Q99836); test: disruptors of TLR9 binding to MyD88 – cell-based, CHO, BLA complementation, fluorescence, primary screen (AID 504734); settings: CHO BLA complementation TLR9-MyD88, CCF4 FRET ratio; at 4.98 µM
The whole screen tested about 340,000 compounds, of which about 730 (0.21%) were called active.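 The calls were made as follows: active = inhibition above the mean over all tested compounds plus 3 SD (cut at about 21% in these data); inactive = the rest.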 This is one part of a sample in which actives are shown more often than they occur.
Returns: one label drawn from Y = active, N = inactive

Solved entries:
compound=O=C(O)/C=C/c1ccc(S(=O)(=O)N2CCCCCC2)cc1 qualitativelabel=N
compound="O=C(COC(=O)/C=C/c1ccc(Cl)cc1)NC1CCS(=O)(=O)C1 (stereo not given)" qualitativelabel=N
compound="CC1(c2cccc(Br)c2)NC(=O)N(CC(=O)NCCC2=CCCCC2)C1=O (stereo not given)" qualitativelabel=N

Dear colleague, could you share the recorded outcome for C[N+](C)(C)CCNC(=O)c1cc[n+](Cc2ccccc2)c(/C=N/O)c1 when you have a moment? Y

Dear colleague, could you share the recorded outcome for CCN1C(=O)[C@H]2[C@@H](c3ccc(C(F)(F)F)cc3)N[C@]3(CCCN(Cc4ccc(Br)cc4)C3=O)[C@H]2C1=O when you have a moment? N
